- STUDY SYSTEM: bovine intestinal alkaline phosphatase (Bos taurus (Bovine), UniProt P19111)
- Sequence (P19111 20-506): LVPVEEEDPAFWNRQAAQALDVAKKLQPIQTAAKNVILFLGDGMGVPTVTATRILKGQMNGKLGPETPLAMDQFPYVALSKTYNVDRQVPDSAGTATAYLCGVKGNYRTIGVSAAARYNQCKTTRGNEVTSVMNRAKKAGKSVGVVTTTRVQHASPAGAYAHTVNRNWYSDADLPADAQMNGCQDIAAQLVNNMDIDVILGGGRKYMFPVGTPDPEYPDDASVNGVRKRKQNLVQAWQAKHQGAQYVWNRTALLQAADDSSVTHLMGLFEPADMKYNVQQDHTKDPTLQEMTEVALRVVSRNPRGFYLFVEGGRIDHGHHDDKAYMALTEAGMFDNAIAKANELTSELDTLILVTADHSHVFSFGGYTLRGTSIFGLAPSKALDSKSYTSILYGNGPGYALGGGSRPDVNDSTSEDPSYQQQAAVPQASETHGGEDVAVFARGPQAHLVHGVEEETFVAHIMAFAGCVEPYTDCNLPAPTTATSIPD
- METHOD: BiALP: conversion by bovine intestinal alkaline phosphatase
- Format: in vitro ADME
- RECORDED CONDITIONS: parent formed; 2 μM substrate, 100 ng/mL iALP, Tris pH 7.8, 37° C., 60 minutes
METRIC: [Intermediate A] or [Amprenavir] (nM)
Give bare numbers, in nM.

>>> reading("COC(=O)N[C@H](C(=O)N[C@@H](Cc1ccc(C#Cc2cnc(N3CC4CCC(C3)N4C3COC3)nc2)cc1)[C@H](CN(Cc1c(F)cc(-c2ccn(C(F)F)n2)cc1F)NC(=O)[C@@H](NC(=O)OC)C(C)(C)C(F)(F)F)OC(=O)CC(C)(C)c1c(CC(=O)N2CCN(S(N)(=O)=O)CC2)cc(C)cc1OP(=O)(O)O)C(C)(C)C(F)(F)F [Example 81]")
0

Entry COC(=O)N[C@H](C(=O)N[C@@H](Cc1ccc(C#Cc2cnc(N3CC4CCC(C3)N4C3COC3)nc2)cc1)[C@H](CN(Cc1c(F)cc(-c2ccn(C(F)F)n2)cc1F)NC(=O)[C@@H](NC(=O)OC)C(C)(C)C(F)(F)F)OC(=O)OCOC(=O)CC(C)(C)c1c(CC(=O)NCCS(=O)(=O)O)cc(C)cc1OP(=O)(O)O)C(C)(C)C(F)(F)F [Example 21] , [Intermediate A] or [Amprenavir] reported as 1034.6
